Listed molecules paired with reported edema as a percentage of the edema produced only by carrageenan (value of 100)
tested on: carrageenan edema in the rat's paw; experiment: carrageenan edema in the rat's paw, physical forms of PGA and Curcumin; assay type: in vivo; details: 1 hr; rat; PGA 30, PGA-m 20, CUR-m 10, PGACUR-m 30, PGA-sm 20 mg/kg
Provide the reading as a plain figure in %.

Example entries and their recorded answers appear below.
CCCCCCCCCCCCCCCC(=O)N[C@H]1C(O)O[C@H](CO)[C@@H](O)[C@@H]1O (stereo partly drawn) [PGA, N-palmitoyl-D-glucosamine]    100.0
COc1cc(/C=C/C(=O)CC(=O)/C=C/c2ccc(O)c(OC)c2)ccc1O [CUR-m, Curcumin, reference compound]    95.4

edema as a percentage of the edema produced only by carrageenan (value of 100) measured on CCCCCCCCCCCCCCCC(=O)N[C@H]1C(O)O[C@H](CO)[C@@H](O)[C@@H]1O (stereo partly drawn) [PGA-m, N-palmitoyl-D-glucosamine] = 92.2

edema as a percentage of the edema produced only by carrageenan (value of 100) measured on CCCCCCCCCCCCCCCC(=O)N[C@H]1C(O)O[C@H](CO)[C@@H](O)[C@@H]1O (stereo partly drawn) [PGA-sm, N-palmitoyl-D-glucosamine] = 100.0
